Molecular target: T1, human CD33 (full length ECD), recombinant (human, UniProt P20138 18-259)
T1 construct: extracellular domain; Tag or HSA fusion partner unknown; also called hu CD33 (FL ECD); hCD33-FL ECD
T1 sequence (P20138 18-259): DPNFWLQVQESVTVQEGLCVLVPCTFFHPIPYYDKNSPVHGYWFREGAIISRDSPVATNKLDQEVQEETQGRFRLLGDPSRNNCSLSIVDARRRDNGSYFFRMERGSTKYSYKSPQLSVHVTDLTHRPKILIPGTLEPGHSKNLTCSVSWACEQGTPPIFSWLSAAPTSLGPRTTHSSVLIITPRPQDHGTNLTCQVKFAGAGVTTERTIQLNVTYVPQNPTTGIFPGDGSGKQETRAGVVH
Assay: SPR (Biacore 8K), vHH-mono-Fc captured by anti-human Fc, antigen in solution
Measured Metric: log10(Kd) (log10 of the value in nM)

Binder	log10(Kd)
C33B1783 (llama vHH on mono-Fc backbone) (Fc fusion, vHH is placed first; not shown: mono-Fc backbone) EVQLVESGGGLVQAGGSLRLSCAASGFTFDDYAVGWFRQVPGKEREGVSCISSSDGATYYADSVKGRFTISSDNAKNTVYLQMNSLKPEDTAVYYCTAIIVRGSGWERAAAACRYEYSYWGQGTQVTVSS	-1.07
C33B1789 (llama vHH on mono-Fc backbone) (Fc fusion, not shown: mono-Fc backbone) QVQLVESGGGLVQAGGSLRLSCAVFGFSLSDYAIGWFRQAPGKEREKVSCISESDGRTYLSDSVKSRFTISRDNGKNTVYLQMNNLKPDDTGVYYCATVDQAISESSYHCEKGFGSWGQGTQVTVSS	-0.17
C33B1785 (llama vHH on mono-Fc backbone) (Fc fusion, not shown: mono-Fc backbone) QVQLVESGGGSVQPGGSLRLSCAVFGFSLSDYAIGWFRQAPGKEREKVSCISESDGRTYLSDSVKSRFTISRDNGKNTVYLQMNNLKPDDTGVYYCATVDQAISESSYHCEKGFGSWGQGTQVTVSS	-0.18
C33B1780 (llama vHH on mono-Fc backbone) (Fc fusion, not shown: mono-Fc backbone) EVQLVESGGGLVQPGGSLRLSCAVFGFSLSDYAIGWFRQAPGKEREKVSCISESDGRTYLSDSVKSRFTISRDNGKNTVYLQMNNLKPDDTGVYYCATVDQAISESSYHCEKGFGSWGQGTQVTVSS	-0.07
C33B1787 (llama vHH on mono-Fc backbone) (Fc fusion, not shown: mono-Fc backbone) EVQLVESGGGLVQAGGSLRLSCAASGFTFDDYAIGWFRQAPGKEREGVSCISSSDGSTYYVDSVKGRFTISSDNAKNTVYLQMNSLKPEDTAVYYCTALIIMYGSGSERAAAACRYKYEYWGQGTQVTVSS	-0.10
C33B1788 (llama vHH on mono-Fc backbone) (Fc fusion, not shown: mono-Fc backbone) QVQLVESGGGLVQPGGSLRLSCAVFGFSLSDYAIGWFRQAPGKEREKVSCISESDGRTYLSDSVKSRFTISRDNGKNTVYLQMNNLKPDDTGVYYCATVDQAISESSYHCEKGFGSWGQGTQVTVSS	-0.15
C33B1782 (llama vHH on mono-Fc backbone) (Fc fusion, not shown: mono-Fc backbone) EVQLVESGGGLVQAGGSLRLSCAASGFTFDDYAVGWFRQAPGKEREGISCISSSDGATYYADSVKGRFTISTDNAKNTAFLQMNSLKPEDTAVYYCTAVIVRGTGWERAAAACRYEYAYWGQGTQVTVSS	-0.69
C33B1781 (llama vHH on mono-Fc backbone) (Fc fusion, not shown: mono-Fc backbone) EVQVVESGGGLVQGGGSLRLSCAASGSIFSINAMGWYHQAPGKQRELVARITGGGATDYVDSVKGRFTISLDSAKSTVYLQMNSLKPEDTAVYHCYADLVTRVGSDLLYDDYWGQGTQVTVSS	0.34
C33B1786 (llama vHH on mono-Fc backbone) (Fc fusion, not shown: mono-Fc backbone) EVQVVESGGGVVQSGGSLTLSCEASESILSFSTMDWFRQAPGKEREGVSCIRPRYSTTTHADSIKGRFKMYSDNAKNTIYLHMNSLQPEDTAVYYCHMYHYSSQYWGQGTQVTVSS	-0.45

meta.source: patent US20230365684A1
